target.or.test.system: UniProt P29371
experiment.notes: Antagonistic activity against NK3R (unknown origin) expressed in CHO cells assessed as inhibition of NKB-induced intracellular calcium flux under UV-light irradiation by Calcium 4 assay
Type: functional, cell-based
metric: IC50

What measured IC50 goes with CC1c2noc(-c3ccc4ccccc4n3)c2CCN1C(=O)c1ccc(F)cc1 (stereo unspecified) ?
> 100 µM

----------
target.or.test.system: Neuromedin-K receptor (Homo sapiens)
Sequence (P29371 whole entry): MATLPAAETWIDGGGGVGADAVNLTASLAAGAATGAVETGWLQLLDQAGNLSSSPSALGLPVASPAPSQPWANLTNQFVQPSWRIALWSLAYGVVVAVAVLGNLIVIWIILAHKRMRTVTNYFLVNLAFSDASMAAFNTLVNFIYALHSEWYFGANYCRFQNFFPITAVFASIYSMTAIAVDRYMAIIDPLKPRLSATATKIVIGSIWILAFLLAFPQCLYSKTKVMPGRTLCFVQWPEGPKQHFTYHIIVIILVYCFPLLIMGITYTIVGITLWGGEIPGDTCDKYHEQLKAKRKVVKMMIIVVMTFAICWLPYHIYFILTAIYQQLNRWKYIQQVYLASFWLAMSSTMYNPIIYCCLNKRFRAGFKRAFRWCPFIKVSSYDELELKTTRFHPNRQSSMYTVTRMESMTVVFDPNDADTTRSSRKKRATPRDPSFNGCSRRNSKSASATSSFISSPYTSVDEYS
experiment.notes: Antagonistic activity against NK3R (unknown origin) expressed in CHO cells assessed as inhibition of NKB-induced intracellular calcium flux by Calcium 4 assay
Type: functional, cell-based
Recorded pIC50, one value per entry.
Scale: negative log10 of molar concentration, which is what pIC50 denotes.

Guide cases for pIC50, answers given:
CC1c2noc(-c3ccc4ccccc4n3)c2CCN1C(=O)c1ccc(F)cc1 (stereo unspecified)    4.99
C[C@@H]1c2nnc(-c3ccc4ccccc4n3)n2CCN1C(=O)c1ccc(F)cc1    6.59
CC1c2onc(-c3ccc4ccccc4n3)c2CCN1C(=O)c1ccc(F)cc1 (stereo unspecified)    5.09
CC1c2nnn(-c3ccc4ccccc4n3)c2CCN1C(=O)c1ccc(F)cc1 (stereo unspecified)    5.39
C[C@H]1c2noc(-c3ccc4ccccc4n3)c2CCN1C(=O)c1ccc(F)cc1    4.86

What measured pIC50 goes with C[C@@H]1c2noc(-c3ccc4ccccc4n3)c2CCN1C(=O)c1ccc(F)cc1 ?
4.93
